Data credit: PubChem BioAssay (NCI)

The reader will find reported growth values listed item by item below.
Test system: A549/ATCC NSCLC
Test: NCI-60 one-dose screen, 48 h (100 = growth as untreated, 0 = no growth, -100 = all killed)
Conditions: 10 µM unless noted
This is part of a sample that, as a whole, favours compounds with a hit. Of some 83,000 tested, about 20% had one in any assay.
Outcome measure: growth (%)

Molecule | Outcome measure | Experimental result
Nc1nc(N)c2c(n1)NC(c1ccc3c(c1)OCO3)CC(c1cccc(Nc3ccncc3)c1)=N2 (stereo unspecified) | growth | 79.6
COc1cc2nc3cc([N+](=O)[O-])ccc3c(NCCCNCCO)c2cc1OC | growth | -26.6
O=C1NCCS(=O)(=O)/C1=C\C=C\c1cccc(C(F)(F)F)c1 | growth | 39.4
O=C(OCC(O)(CO)C(=O)NC12CC3CC(CC(C3)C1)C2)c1ccc(Cl)cc1 (stereo unspecified) | growth | 91.4
O=C1c2cccnc2C(=O)c2c1c(C(=O)OCCCN1CCOCC1)c1ccccn21 | growth | -25
CCOC(=O)/C(=C\c1ccccc1Cl)P(=O)(OCC)OCC | growth | 64.9
CNC(=O)c1cc(Oc2ccc3nc(NC(=O)NC(C)C)sc3c2)ccn1 | growth | 64.3
COc1ccc(C2=NN3C(C2)c2cc(Br)ccc2OC3c2ccncc2)cc1 (stereo unspecified) | growth | 71.7
COc1ccc(C(=O)/C=C/Nc2cc(-c3ccccc3)nn2-c2ccccc2)cc1 | growth | 91.4
C=CCn1c(SCC(=O)Nc2ccc(C(=O)/C=C/c3ccc(Cl)cc3)cc2)nnc1-c1ccccc1 | growth | 93.2
Cn1ncc(CC(=O)O)c1-n1nnc2cc(Cl)ccc2c1=O | growth | 97.3
COc1ccc(/C(C)=C(\c2ccc(Cl)cc2)c2ccc(OCCCN(C)C)cc2)cc1 | growth | 47.2
CCCN1C2CCC1/C(=C\c1ccc(OC)cc1)C(=O)/C2=C/c1ccc(OC)cc1 | growth | 72.6
CC1(C)CC(=O)C2=C(C1)OC(C(=O)c1ccccc1)C2c1cccc(Oc2ccccc2)c1 (stereo unspecified) | growth | 29.9
CCOc1ccccc1NC(=O)CCC(=O)OC | growth | 108
Cc1ccc2c(c1)CC(O)CC1C(=O)N(CCO)CC(=O)N21 (stereo unspecified) | growth | 76.6
O=c1cc(-c2nccc3c2[nH]c2ccccc23)c2cc(Cl)ccc2o1 | growth | 42.3
O=C1C(Nc2ccc(Br)cc2)=C(I)C(=O)c2ncccc21 | growth | 46.8
C#CCOc1ccc(C2=NN(C)C3N=C(Cl)c4ncn(C)c4N23)cc1OCC#C (stereo unspecified) | growth | 104
N#C/C(=C/C=C/c1ccccc1)S(=O)c1ccccc1 (stereo unspecified) | growth | 2.3
CC/C(=C(/c1ccc(Cl)cc1)c1ccc(OCCCN(C)C)cc1)c1ccc(OC)cc1 | growth | 49.8
